Entries annotated with measured IC50
Molecular target: recombinant human SYK (GST-hSYK fusion protein) (Homo sapiens)
Experiment: biochemical
Conditions: rhSYK Activity (IC50), recombinant human GST-SYK 5 pM, ATP 25 μM, biotinylated substrate peptide 250 nM, HTRF, 10-dose titration

A selection of reference data follows.
Cc1cc(Nc2nccc(OC3CCNCC3F)n2)cc(-c2cnc(C(C)(O)C(F)(F)F)s2)c1 (stereo not shown) [Example 94B-4]    < 100 nM
Cc1cc(Nc2nccc(C)n2)cc(-c2cnc([C@@]3(O)CC[C@H](C(=O)O)C(C)(C)C3)s2)c1    < 100 nM
Cc1cc(Nc2nccc(O[C@H]3CCOC3)n2)cc(-c2cnc(C3(O)CCC3)s2)c1 [Example 94A-10]    < 100 nM
Cc1cc(Nc2nccc(C(F)(F)F)n2)cc(-c2cnc(C(C)(C)C(=O)OC(C)(C)C)s2)c1    100 to 1000 nM
Cc1cc(Nc2nccc(C(F)(F)F)n2)cc(-c2cnc(C(=O)N3CCC(O)(C(=O)O)CC3)s2)c1 [Example 87B-22]    < 100 nM

In plain terms, Cc1cc(Nc2nccc(C(F)(F)F)n2)cc(-c2cnc(CNc3cc(C(=O)O)n[nH]3)s2)c1 [Example 88A-32] has a documented IC50 of < 100 nM

In plain terms, COC(=O)[C@H]1CC[C@](O)(c2ncc(-c3cc(C)cc(Nc4nccc(C(C)(C)C)n4)c3)s2)CC1(C)C has a documented IC50 of < 100 nM

In plain terms, Cc1cc(Nc2nccc(C(F)(F)F)n2)cc(-c2cnc(C3(C(N)=O)CCCCC3)s2)c1 has a documented IC50 of < 100 nM

In plain terms, Cc1cc(Nc2nccc(C(F)(F)F)n2)cc(-c2cnc(C(=O)N(C)CCC3OCCO3)s2)c1 [Example 87A-17] has a documented IC50 of 100 to 1000 nM

In plain terms, Cc1cc(Nc2nccc(C(F)(F)F)n2)cc(-c2cnc(CN3CCN(C)C3=O)s2)c1 has a documented IC50 of < 100 nM

In plain terms, Cc1cc(Nc2nccc(C(O)CO)n2)cc(-c2cnc(C3(O)CCC3)s2)c1 (stereo not shown) has a documented IC50 of < 100 nM

In plain terms, Cc1cc(Nc2nccc(OCC3CCOC3)n2)cc(-c2cnc(C3(O)CCC3)s2)c1 (stereo not shown) [Example 94A-15] has a documented IC50 of < 100 nM

In plain terms, Cc1cc(Nc2nccc(OC(C)(C)C(=O)O)n2)cc(-c2cnc(C3(O)CCC3)s2)c1 has a documented IC50 of 100 to 1000 nM

In plain terms, Cc1cc(Nc2nccc(C(F)(F)F)n2)cc(-c2cnc(C(C)(C)c3nnc(C)o3)s2)c1 [Example 85A-4] has a documented IC50 of < 100 nM

In plain terms, Cc1cc(Nc2ncc(F)cn2)cc(-c2cnc(C3(O)CCC3)s2)c1 [Example 100A-4] has a documented IC50 of 100 to 1000 nM

In plain terms, Cc1cc(Nc2nccc(C(F)(F)F)n2)cc(-c2cnc(-c3cccs3)s2)c1 has a documented IC50 of 100 to 1000 nM

In plain terms, Cc1cc(Nc2nccc(C(C)(O)C3CC3)n2)cc(-c2cnc(C3(O)CCC(C(=O)O)C(C)(C)C3)s2)c1 (single isomer, unassigned) [Example 100A-25] has a documented IC50 of < 100 nM

In plain terms, Cc1cc(Nc2nccc(OC3CCNC(C)CC3)n2)cc(-c2cnc(C3(O)CCC3)s2)c1 (stereo not shown) [Example 94A-20] has a documented IC50 of < 100 nM

In plain terms, Cc1cc(Nc2nccc(C(F)(F)F)n2)cc(-c2cnc(CN(C)CCO)s2)c1 [Example 88A-12] has a documented IC50 of < 100 nM

In plain terms, Cc1cc(Nc2nccc(C(F)(F)F)n2)cc(-c2cnc(CN(CCO)CCS(=O)(=O)O)s2)c1 [Example 88A-52] has a documented IC50 of < 100 nM

In plain terms, Cc1cc(Nc2nccc(C(F)(F)F)n2)cc(-c2cnc(C(=O)N3CCN(C)C(=O)C3)s2)c1 [Example 87B-4] has a documented IC50 of < 100 nM

In plain terms, Cc1cc(Nc2nccc(C(F)(F)F)n2)cc(-c2cnc(C3(c4nnco4)CC3)s2)c1 has a documented IC50 of < 100 nM

In plain terms, Cc1cc(Nc2nccc(C(C)O)n2)cc(-c2cnc(C3(O)CCC(C(=O)O)C(C)(C)C3)s2)c1 (single isomer, unassigned) [Example 100A-14] has a documented IC50 of < 100 nM

---

Molecular target: recombinant human SYK (GST-hSYK fusion protein) (Homo sapiens)
Experiment: biochemical
Conditions: rhSYK Activity, Table 65
pIC50: −log10 of the molar value.
Parameter: pIC50

Cc1cc(Nc2nccc(C(F)(F)F)n2)cc(-c2cnc(C3(NC(=O)NC(N)=O)COC3)s2)c1    > 7.00
COc1nc(Nc2cc(C)cc(-c3cnc(C4(NC(=O)NC(N)=O)CCC4)s3)c2)ncc1Cl    > 7.00

Recorded pIC50 for Cc1cc(Nc2nccc(C3CC3)n2)cc(-c2cnc(C3(NC(=O)NC(N)=O)CCC3)s2)c1 on recombinant human SYK (GST-hSYK fusion protein) (Homo sapiens) was > 7.00

Recorded pIC50 for Cc1cc(Nc2nccc(C(F)(F)F)n2)cc(-c2cnc(C3(NC(=O)NC(N)=O)CCNC(=O)CC3)s2)c1 (stereo not shown) on recombinant human SYK (GST-hSYK fusion protein) (Homo sapiens) was > 7.00

Recorded pIC50 for Cc1cc(Nc2ncccn2)cc(-c2cnc(C3(NC(=O)NC(N)=O)CCC3)s2)c1 on recombinant human SYK (GST-hSYK fusion protein) (Homo sapiens) was > 7.00

Recorded pIC50 for COc1ccnc(Nc2cc(C)cc(-c3cnc(C4(NC(=O)NC(N)=O)CCC4)s3)c2)n1 on recombinant human SYK (GST-hSYK fusion protein) (Homo sapiens) was > 7.00

Recorded pIC50 for Cc1cc(Nc2ncc(Cl)c(C(F)(F)F)n2)cc(-c2cnc(C3(NC(=O)NC(N)=O)CCNC(=O)CC3)s2)c1 (stereo not shown) on recombinant human SYK (GST-hSYK fusion protein) (Homo sapiens) was > 7.00

---

Molecular target: recombinant human SYK (GST-hSYK fusion protein) (Homo sapiens, UniProt P43405)
Test: biochemical
Conditions: rhSYK Activity (IC50), recombinant human GST-SYK 5 pM, ATP 25 μM, biotinylated substrate peptide 250 nM, HTRF, 10-dose titration
Counter-ions that a name gives are not always drawn.
Entries annotated with measured IC50

A selection of reference data follows.
Cc1cc(Nc2nccc(O[C@H](C)C(=O)O)n2)cc(-c2cnc(C3(O)CCC3)s2)c1 [Example 94A-22]    100 to 1000 nM
Cc1cc(Nc2nccc(C3CCCC3)n2)cc(-c2cnc(C3(O)CCC3)s2)c1    < 100 nM
Cc1cc(Nc2nccc(C(F)(F)F)n2)cc(-c2cnc(C34CCC(C(=O)O3)C(C)(C)C4)s2)c1 (centres unmarked)    100 to 1000 nM
Cc1cc(Nc2ncc(Cl)cn2)cc(-c2cnc(C3(O)CCC3)s2)c1 [Example 100A-5]    100 to 1000 nM
Cc1cc(Nc2nccc(C(F)(F)F)n2)cc(-c2cnc(C(=O)NCC3COCCO3)s2)c1 (centres unmarked) [Example 87A-20]    < 100 nM
Cc1cc(Nc2nccc(C(F)(F)F)n2)cc(-c2cnc(CNC(C)c3ccccn3)s2)c1 (centres unmarked) [Example 88A-9]    < 100 nM
Cc1cc(Nc2nccc(C(F)(F)F)n2)cc(-c2cnc(C3(C(=O)O)CC3)s2)c1 [Example 84, (TFA salt)]    < 100 nM

In plain terms, Cc1cc(Nc2nccc(C(F)(F)F)n2)cc(-c2cnc(CNC3CCCCNC3=O)s2)c1 (centres unmarked) [Example 88A-29] has a documented IC50 of < 100 nM

---

Entries annotated with measured IC50
Molecular target: recombinant human SYK (GST-hSYK fusion protein) (Homo sapiens)
Assay: biochemical
Settings: rhSYK Activity (IC50), recombinant human GST-SYK 5 pM, ATP 25 μM, biotinylated substrate peptide 250 nM, HTRF, 10-dose titration

In plain terms, Cc1cc(Nc2nccc(C(F)(F)F)n2)cc(-c2cnc(C3(F)CCSCC3)s2)c1 has a documented IC50 of 100 to 1000 nM

---

Molecular target: recombinant human SYK (GST-hSYK fusion protein) (Homo sapiens, UniProt P43405)
Conditions: read-out: rhSYK Activity; Table 54D
pIC50: −log10 of the molar value.
Parameter: pIC50

A selection of reference data follows.
Cc1cc(Nc2nccc(C(F)(F)F)n2)cc(-c2cnc(C3(O)CCCN(C(=O)CC4CCOC4)CC3)s2)c1 (stereo not drawn) [Example 54D-69]    > 7.00
Cc1cc(Nc2nccc(C(F)(F)F)n2)cc(-c2cnc(C3(O)CCCN(C(=O)c4nnnn4C)CC3)s2)c1 (single isomer, unassigned) [Example 54D-58]    > 7.00
Cc1cc(Nc2nccc(C(F)(F)F)n2)cc(-c2cnc(C3(O)CCCN(C(=O)CO)CC3)s2)c1 (single isomer, unassigned) [Example 54D-123]    > 7.00
Cc1cc(Nc2nccc(C(C)C)n2)cc(-c2cnc(C3(O)CCCN(C(=O)C(C)O)CC3)s2)c1 (stereo not drawn) [Example 54D-3]    > 7.00
Cc1cc(Nc2nccc(C(F)(F)F)n2)cc(-c2cnc(C3(O)CCCN(C(=O)c4[nH]nnc4Cl)CC3)s2)c1 (single isomer, unassigned) [Example 54D-101]    > 7.00

In plain terms, Cc1cc(Nc2nccc(C(F)(F)F)n2)cc(-c2cnc(C3(O)CCCN(C(=O)Cc4nnn[nH]4)CC3)s2)c1 (single isomer, unassigned) [Example 54D-60] has a documented pIC50 of > 7.00

In plain terms, Cc1cc(Nc2nccc(C(F)(F)F)n2)cc(-c2cnc(C3(O)CCCN(C(=O)C(O)CO)CC3)s2)c1 (single isomer, unassigned) [Example 54D-29] has a documented pIC50 of > 7.00

In plain terms, Cc1cc(Nc2nccc(C(F)(F)F)n2)cc(-c2cnc(C3(O)CCCN(C(=O)c4n[nH]c(C(F)(F)F)n4)CC3)s2)c1 (single isomer, unassigned) [Example 54D-110] has a documented pIC50 of > 7.00

In plain terms, Cc1cc(Nc2nccc(C(F)(F)F)n2)cc(-c2cnc(C3(O)CCCN(C(=O)c4cnn[nH]4)CC3)s2)c1 (single isomer, unassigned) [Example 54D-37] has a documented pIC50 of > 7.00

In plain terms, Cc1cc(Nc2nccc(C(F)(F)F)n2)cc(-c2cnc(C3(O)CCCN(C(N)=O)CC3)s2)c1 (single isomer, unassigned) [Example 54D-120] has a documented pIC50 of > 7.00

In plain terms, Cc1cc(Nc2nccc(C(F)(F)F)n2)cc(-c2cnc(C3(O)CCCN(C(=O)c4cnon4)CC3)s2)c1 (single isomer, unassigned) [Example 54D-39] has a documented pIC50 of > 7.00

In plain terms, Cc1cc(Nc2nccc(C(F)(F)F)n2)cc(-c2cnc(C3(O)CCCN(C(=O)Cn4ccnn4)CC3)s2)c1 (single isomer, unassigned) [Example 54D-53] has a documented pIC50 of > 7.00
